assay_system: 11-beta-hydroxysteroid dehydrogenase 1 (Mus musculus)
Sequence (P50172 whole entry): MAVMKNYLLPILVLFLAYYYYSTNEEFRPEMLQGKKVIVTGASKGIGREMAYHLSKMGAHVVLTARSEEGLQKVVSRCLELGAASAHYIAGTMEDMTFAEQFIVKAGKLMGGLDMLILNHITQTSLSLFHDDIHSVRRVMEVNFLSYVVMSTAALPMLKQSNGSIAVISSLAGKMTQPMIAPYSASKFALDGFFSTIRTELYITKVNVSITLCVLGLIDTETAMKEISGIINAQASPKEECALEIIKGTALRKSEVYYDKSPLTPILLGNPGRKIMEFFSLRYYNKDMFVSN
assay_details: Inhibition of 11beta-HSD1 in mouse 3T3L1 cells assessed as cortisol level by HTRF assay
Type: cell-based, 3T3-L1
readout: IC50

- smiles_structure: "CC(C)(CC(=O)NC1CC1)CC(=O)N[C@H]1C2CC3CC1C[C@](C(N)=O)(C3)C2"
  assay_value: "< 1000 nM"

Kindly review the next compound as well.
Challenge: I'm curious: which IC50 was measured for CC(C)(CC(=O)NC1CC1)CC(=O)N[C@H]1C2CC3CC1C[C@](O)(C3)C2 tested on 11-beta-hydroxysteroid dehydrogenase 1 (Mus musculus)?
Response given: < 100 nM
